- Test system: 8505C
- measurement.description: Cytotoxicity against human 8505C cells by SRB assay
- Assay type: functional, cell-based
We begin with a simple list: items and their reported IC50.

Completed entries (count: 2):
                                   compound  test_target  endpoint_result
0  CCOC(=O)C(C[N+](=O)[O-])c1ccccc1 (configuration not stated)        8505C          > 30 µM
1  CCOC(=O)C(C[N+](=O)[O-])c1cccc(Cl)c1 (configuration not stated)        8505C          14.9 µM

Using known records, supply IC50 for CCOC(=O)C(C[N+](=O)[O-])c1ccc(Cl)cc1 (configuration not stated)
> 30 µM

Give recorded IC50. CCOC(=O)C(C[N+](=O)[O-])c1ccc(F)cc1 (configuration not stated)
> 30 µM

Please report the measured IC50 for CCOC(=O)C(C[N+](=O)[O-])c1ccc(OC)cc1 (configuration not stated)
> 30 µM

Tell me measured IC50 for CN(C)C(=O)C(C[N+](=O)[O-])c1ccc(Cl)cc1 (configuration not stated) please.
> 30 µM

Specify reported IC50 for the compound shown: NC(=O)C(C[N+](=O)[O-])c1ccc(Cl)cc1 (configuration not stated)
> 30 µM

Return value of IC50 for input CCOC(=O)C(C[N+](=O)[O-])c1cccc(C(F)(F)F)c1 (configuration not stated) , no commentary.
20.7 µM

Complete the entry with IC50 for CCOC(=O)C(C[N+](=O)[O-])c1ccccc1Cl (configuration not stated)
> 30 µM
